- System: CAKI-1 renal
- Assay Procedure: NCI-60 one-dose screen, 48 h (100 = growth as untreated, 0 = no growth, -100 = all killed)
- Recorded Conditions: 10 µM unless noted
Compounds without any hit were thinned out: in the full panel of roughly 83,000, 20% have a hit.
Entries annotated with measured growth
Your answer should be a plain number; it is taken to be in %.

Consider the worked cases shown below.
                                   molecule  recorded_metric  value_observed
0  CC(Cc1cccc2ccccc12)C(N)=O (stereo not given)           growth            93.8
1  Cn1ccnc1C(=O)/C=C/c1ccc(C(=O)Nc2c(F)c(F)c(F)c(F)c2F)cc1           growth            8.22
2  O=C(c1ccccc1)[C@@H](c1ccccc1)[C@]1(O)C(=O)Nc2ccccc21           growth            84.6
3  Cn1nc(-c2ccc(Cl)cc2)nc2c(=O)n(C)c(=O)nc1-2           growth            6.17
4   O=c1ccc2nc(-c3ccccc3)nn(-c3ccccn3)c-2c1           growth            77.4

# return recorded growth for input CN(C)CCCN(CCC1CCCCC1)CCC1CCCCC1
52.9

# return recorded growth for input O=C1c2ccccc2C(=O)c2cc(Cn3c[n+](Cc4ccc5ccccc5c4)c4ccccc43)ccc21
40.5

# return recorded growth for input Cc1nn(-c2ccccc2)c(Oc2ccccc2)c1/C=N/NC(=O)Cn1c(=O)sc2ccccc21
33.4

# return recorded growth for input CS(=O)(=O)Nc1cc(-c2ccc3ncnc(Nc4cccc(Cl)c4)c3c2)cnc1Cl
2.5

# return recorded growth for input CS(=O)(=O)c1cccc(Nc2ncc3cc(-c4ccccc4Cl)ccc3n2)c1
9.3

====

- System: T-47D breast
- Assay Procedure: NCI-60 one-dose screen, 48 h (100 = growth as untreated, 0 = no growth, -100 = all killed)
- Recorded Conditions: 10 µM unless noted
This is part of a sample that, as a whole, favours compounds with a hit. Of some 83,000 tested, about 20% had one in any assay. Activity calls are given as the source filed them. How the source made its calls: active means growth percent below 10; inactive means the rest.
Recorded Metric: growth

Consider the worked cases shown below.
Molecule	Measurement Target	growth
FC(F)(F)c1cc(N2CCCCC2)nc(NCCCNc2ccnc3cc(Cl)ccc23)n1	T-47D breast	37.7% (inactive)
COc1cc(-c2c(-c3ccccc3)c[nH]c2C(=O)NCCCO)c(OC)c2c1OCO2	T-47D breast	90.9% (inactive)
C=CCn1c(SCC(=O)Nc2ccc(C(=O)/C=C/c3cc(OC)c(OC)c(OC)c3)cc2)nnc1-c1cc(-c2ccc(S(N)(=O)=O)cc2)nc2ccccc12	T-47D breast	81.1% (inactive)
Cc1c(C(=O)C(SC(=S)N2CCOCC2)SC(=S)N2CCOCC2)nnn1-c1ccc([N+](=O)[O-])cc1	T-47D breast	92.3% (inactive)
O=C(/C=C/c1ccco1)Nc1ncc(Cc2ccc(F)cc2)s1	T-47D breast	49.3% (inactive)
O=C1OCC2=C1C(c1cccc(F)c1)c1cc3c(cc1N2CCO)CCC3 (stereo not drawn)	T-47D breast	52.6% (inactive)
CNC(=O)c1cc(Oc2cccc3nc(NC(=O)Nc4ccc(F)cc4F)ccc23)ccn1	T-47D breast	21% (inactive)

Moving on to the next molecule.
# return recorded growth for input [2H]C([2H])([2H])Oc1ccc(/C=C/C(=O)/C=C(/C=C/c2ccc(OC([2H])([2H])[2H])c(OC([2H])([2H])[2H])c2OC([2H])([2H])[2H])OB(F)F)c(OC([2H])([2H])[2H])c1OC([2H])([2H])[2H]
51.7% (inactive)
